Taken from patent US20150218281A1.

Target: T1, biotinylated hOX40L (R&D Systems, biotinylated in house) (human, UniProt P23510 51-183, biotinylated with Sulfo-NHS-LC-Biotin, sites not stated)
T1 construct: same bought protein as m10, biotinylated; also called biotinylated OX40L
T1 sequence: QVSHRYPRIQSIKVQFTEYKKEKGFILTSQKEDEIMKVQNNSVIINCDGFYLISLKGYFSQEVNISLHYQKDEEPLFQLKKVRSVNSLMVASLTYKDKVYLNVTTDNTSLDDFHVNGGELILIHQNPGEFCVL
Assay: hOX40L/hOX40 AlphaScreen, assay 2, native
This section presents binders with their documented IC50 values.
Hi! Could you send only the number? It should be in nM, unit omitted.

Solved entries (count: 3):
OX40L050 (VHH, not shown: small tags and cut ends) VHH: DVQLVESGGGLVQPGGSLRLSCAASRSIGRLDRMGWYRHRTGEPRELVATITGGSSINYADSVKGRFTISRDNSKNTVYLQMNSLRPEDTAVYYCNFNKYVTSRDTWGQGTLVTVSS : 0.145
OX40L047 (VHH, not shown: small tags and cut ends) VHH: DVQLVESGGGLVQPGGSLRLSCAASRSIGRLDRMGWYRHAPGKPRELVATITGGSSINYGDFVKGRFTISRDNSKNTVYLQMNSLRPEDTAVYYCNFNKYVTSRDTWGQGTLVTVSS : 0.735
OX40L040 (VHH, not shown: small tags and cut ends) VHH: DVQLVESGGGLVQPGGSLRLSCAASRSIGRLDRMGWYRHRTGEPRELVATITGGSSINYGDFVKGRFTISRDNSKNTVYLQMNSLRPEDTAVYYCNFNKYVTSRDTWGQGTLVTVSS : 0.092

# input for lookup
input: Supply recorded IC50 for OX40L046 (VHH, not shown: small tags and cut ends) VHH: DVQLVESGGGLVQPGGSLRLSCAASRSIGRLDRMGWYRHRPGKPRELVATITGGSSINYGDFVKGRFTISRDNSKNTVYLQMNSLRPEDTAVYYCNFNKYVTSRDTWGQGTLVTVSS here.
output: 0.256
